The reported measurements were obtained from PubChem BioAssay (NCI).

system: PC-3 prostate; test: NCI tumour cell line growth inhibition, 48 h; in the data active = GI50 below about 0.43 µM; inactive = the rest
Field 'call' accepts TRUE for active, FALSE for inactive

Check out these entries, answers already filled in.
SMILES DATA | SYSTEM NAME | CATEGORY
CCCOC(=O)N1CCN(/[N+]([O-])=N/Oc2ccc([N+](=O)[O-])cc2[N+](=O)[O-])CC1 | PC-3 prostate | FALSE
O=C(Nc1ccc(Cl)c(Cl)c1)O/N=C\c1c(Cl)ccc([N+](=O)[O-])c1Cl | PC-3 prostate | FALSE
COc1cccc(-n2ncc3c(N/N=C/c4ccncc4)ncnc32)c1 | PC-3 prostate | FALSE

Okay, now this molecule:
Asked: Which outcome did this test record for the molecule CC1(C)[C@@H](OC(N)=O)[C@H]2O[C@H]2[C@]2(CO)[C@H]3CC[C@]4(C)[C@@H](c5ccc(=O)oc5)[C@@H](Cl)C[C@]4(O)C3=CC[C@@H]12 ?
Given back: TRUE

----------
system: SN12C renal; test: NCI tumour cell line growth inhibition, 48 h
ATTRIBUTE MEASURED: GI50

// known answers, use as guide
MOLECULE | RESULT
CN(C)c1ccc2c(c1)OC(N)=C(C#N)C2c1ccc2c(c1)CCO2 (stereo not given) | 0.644 µM
COc1ccc(/C=C2\CCCC3=C2NC(N)=NC3c2ccc(OC)c(OC)c2)cc1OC (stereo not given) | > 39.6 µM
O=C(Nc1ccc(Cl)c(Cl)c1)O/N=C\c1c(Cl)ccc([N+](=O)[O-])c1Cl | 2.59 µM
COc1ccc(C2SC(C)C(=O)N2NC(=O)C(O)c2ccccc2)cc1OC (stereo not given) | > 100 µM

Now let's try a different one.
Asked: Please report the recorded GI50 for Cc1ccc(S(=O)(=O)Nc2cccc3[nH]c(C(F)(F)F)nc23)cc1 .
Given back: 2.72 µM

----------
tested on: SK-OV-3 ovarian; assay: NCI tumour cell line growth inhibition, 48 h
ATTRIBUTE MEASURED: TGI

Use the examples below as a reference point.
COMPOUND | TGI
Cc1cn(Cc2cnnn2CC2OC(n3cc(C)c(=O)[nH]c3=O)CC2O)c(=O)[nH]c1=O (stereo unspecified) | > 100 µM
O=CN/C=C/c1ccc(O)c(O)c1 | > 100 µM
CS[C@]12C(=O)C[C@@]3(C)[C@@H](CC[C@]3(O)C(=O)CO)[C@@H]1CCC1=CC(=O)CC[C@@]12C | > 100 µM

Asked: Reported TGI, compound CCCC(=O)NC(Nc1ccc(S(=O)(=O)Nc2nc(C)cc(C)n2)cc1)(C(F)(F)F)C(F)(F)F : ____
Given back: > 100 µM

Asked: Which TGI value belongs to O=CC1CCCc2ccccc21 (stereo unspecified) ?
Given back: > 100 µM

Asked: Query: TGI; subject: CN1CC[C@@H](c2c(O)cc(O)c3c(=O)cc(-c4ccccc4Cl)oc23)[C@@H]1CO
Given back: 9.91 µM

Asked: Query (compound): CC(=O)Nc1ccc(OC2=CCN(C)CC2)cc1 ; field requested: TGI
Given back: > 100 µM

Asked: What does the record list as TGI for COC(=O)c1cc(Cl)ccc1NC(=O)c1ccc([N+](=O)[O-])cc1 ?
Given back: 42.5 µM

Asked: State the recorded TGI for this entry: COc1ccc2ccccc2c1C1OC(=O)c2ccccc21 (stereo unspecified)
Given back: > 100 µM

Asked: Fill in the blank: the reported TGI of CCOc1ccccc1N=Nc1c(C)[nH]n(-c2nc(-c3ccccc3)cs2)c1=O is ____.
Given back: > 100 µM

Asked: Please look up its TGI: CN(/N=C/c1cccc2cccnc12)c1ccccc1
Given back: > 100 µM

Asked: Need TGI, item C=C(C)C(O)C(O)c1c(OC)ccc2ccc(=O)oc12 (stereo unspecified)
Given back: > 100 µM

Asked: Field request: TGI | item: O=C(OCCN=c1c2ccccc2ccc2ccccc12)c1ccc([N+](=O)[O-])cc1
Given back: > 100 µM

Asked: Consider the compound shown here: COc1ccc2c(c1)C(=O)c1c-2c(N(C)C)nc2ccccc12 What is its recorded TGI?
Given back: > 100 µM

Asked: Give the measured TGI of CC1(C)[C@@H](OC(N)=O)[C@H]2O[C@H]2[C@]2(CO)[C@H]3CC[C@]4(C)[C@@H](c5ccc(=O)oc5)[C@@H](Cl)C[C@]4(O)C3=CC[C@@H]12 .
Given back: 0.018 µM

Asked: Please give the measured TGI for this compound: C/C(CC(=O)Nc1ccc(Cl)cc1)=N\NC(N)=S
Given back: > 100 µM

----------
test system: XF 498 CNS; assay: NCI tumour cell line growth inhibition, 48 h
Each record here notes measured TGI.

The examples below pair each entry with its known result.
COMPOUND | SYSTEM NAME | ATTRIBUTE MEASURED | RESULT
COc1ccc(C2N(NC(=O)c3ccncc3)C(=O)CS2(=O)=O)cc1F (centres undefined) | XF 498 CNS | TGI | > 100 µM
COC(=O)C1=C(c2cc(OC)c(OC)c(OC)c2)OC(c2ccc(OC)c(OC)c2)C1 (centres undefined) | XF 498 CNS | TGI | > 100 µM
COc1ccc(C(=O)Cc2ccc(Br)cc2)cc1OC | XF 498 CNS | TGI | 71 µM

Asked: Could you tell me which TGI is on file for C[Si](C)(C)c1ccc(-c2sc(-c3ccc([Si](C)(C)C)s3)c3c2C[Si]2(C3)Cc3c(-c4ccc([Si](C)(C)C)s4)sc(-c4ccc([Si](C)(C)C)s4)c3C2)s1 ?
Given back: > 100 µM

----------
Recorded TGI, one value per entry.
tested on: EKVX NSCLC; assay: NCI tumour cell line growth inhibition, 48 h

Asked: Which measured TGI value corresponds to C[C@@H]1CC[C@H]2C(C(O)CCCCC(O)C3=C(C(F)(F)F)O[C@@H]4O[C@@]5(C)CC[C@H]6[C@H](C)CC[C@@H]3[C@@]46OO5)=C(C(F)(F)F)O[C@@H]3O[C@@]4(C)CC[C@@H]1[C@]32OO4 (stereo partly drawn) ?
Given back: > 100 µM

----------
system: MALME-3M melanoma; test: NCI tumour cell line growth inhibition, 48 h
Entries and their TGI
The reply should be a number in µM, with the unit left off.

SMILES DATA | ATTRIBUTE MEASURED | NUMERIC RESULT
O=c1c2cc(I)ccc2nc(-c2cccs2)n1-c1ccc(O)cc1 | TGI | 20.6

Asked: Look up TGI for this compound: COc1ccc(-c2cc(-c3ccc(Nc4ccnc5cc(Cl)ccc45)cc3)[nH]c(=O)c2C#N)c2ccccc12
Given back: 8.01

----------
tested on: A549 NSCLC; assay: NCI tumour cell line growth inhibition, 48 h
ATTRIBUTE MEASURED: TGI

Below, 2 molecules whose answers are already recorded.
MOLECULE | SYSTEM NAME | TGI
CCc1ccc(NC(=O)COC(=O)c2cc([N+](=O)[O-])ccc2Sc2nnnn2C)cc1 | A549 NSCLC | 53.1 µM
COc1ccc(C2SC(C)C(=O)N2NC(=O)C(O)c2ccccc2)cc1OC (stereo not given) | A549 NSCLC | > 100 µM

Asked: Which value of TGI has been reported for O=c1nc2oc3ccc4ccccc4c3cc-2s1 in the records?
Given back: > 100 µM

Asked: So what does the record say about TGI for COc1cc2cc[n+]3c(C)c4cc(OC)c(OC)cc4c([O-])c3c2cc1OC ?
Given back: > 100 µM

Asked: Given CCOC(=O)NC(=O)c1cn(CCCCCCOC(=O)NCCCCCCNC(=O)OCCCCCCn2cc(C(=O)NC(=O)OCC)c(=O)[nH]c2=O)c(=O)[nH]c1=O , state its recorded TGI.
Given back: > 100 µM

----------
tested on: HOP-62 NSCLC; experiment: NCI tumour cell line growth inhibition, 48 h
# TGI values compiled below

Guide cases for TGI, answers given:
COMPOUND | SYSTEM NAME | RESULT
C[C@]12CCC3[C@@H](CC[C@@H]4c5nonc5CC[C@]34C)C1C/C(=N/O)C2=O (some centres undefined) | HOP-62 NSCLC | > 100 µM
O=C(NN1C(=O)CSC12CCCC2)c1[nH]c2ccc(Br)cc2c1-c1ccccc1 | HOP-62 NSCLC | > 100 µM
CCCCN(CCCC)c1ccc(C(=N)c2ccc(N(CCCC)CCCC)cc2)cc1 | HOP-62 NSCLC | 2.11 µM

Asked: Recorded TGI for CCCCCCCCCCCCCCCCCCNc1ccn(C2OC(COP(=O)(O)OCC3OC(n4cc(F)c(NCCCCCCCCCCCCCCCCCC)nc4=O)CC3O)C(O)C2O)c(=O)n1 (centres undefined) , please?
Given back: > 100 µM

Asked: I have this compound here, Cc1ccc(CNc2c3ccccc3nc3cc(NC(=O)CCN4CCCC4)ccc23)cc1 , and I need its recorded TGI.
Given back: 2.38 µM

Asked: Dear colleague, I am looking for the recorded TGI of the following compound: O=C1/C(=N\S(=O)(=O)c2ccccc2)C([n+]2ccc(Cc3ccccc3)cc2)=C([O-])c2ccccc21
Given back: 3.27 µM

Asked: // TGI lookup, key: C[C@H]1C[C@H]2[C@@H]3C(C)(C)O[C@]4(O)C(=O)[C@]5(O)[C@@H](C)CC[C@H]1[C@]25C(=O)[C@]34C
Given back: > 100 µM

Asked: Can you look up the measured TGI of O=c1ccn(CC2(CO)CC(Cc3ccccc3)C2)c(=O)[nH]1 (centres undefined) for me?
Given back: > 100 µM

Asked: What does the data say about its TGI? Entry: COc1ccc(OC)c2c1C(=O)C1CC1(Br)C2=O (centres undefined)
Given back: > 100 µM
